Source listed as patent US6515015B1.

# Test target: Human PPARγ2 (Homo sapiens)
# Construct: The full length human cDNA for PPARγ2 and PPARδ were subcloned into the PGEX-2T and PGEX-KT
# Sequence (P37231 1-505): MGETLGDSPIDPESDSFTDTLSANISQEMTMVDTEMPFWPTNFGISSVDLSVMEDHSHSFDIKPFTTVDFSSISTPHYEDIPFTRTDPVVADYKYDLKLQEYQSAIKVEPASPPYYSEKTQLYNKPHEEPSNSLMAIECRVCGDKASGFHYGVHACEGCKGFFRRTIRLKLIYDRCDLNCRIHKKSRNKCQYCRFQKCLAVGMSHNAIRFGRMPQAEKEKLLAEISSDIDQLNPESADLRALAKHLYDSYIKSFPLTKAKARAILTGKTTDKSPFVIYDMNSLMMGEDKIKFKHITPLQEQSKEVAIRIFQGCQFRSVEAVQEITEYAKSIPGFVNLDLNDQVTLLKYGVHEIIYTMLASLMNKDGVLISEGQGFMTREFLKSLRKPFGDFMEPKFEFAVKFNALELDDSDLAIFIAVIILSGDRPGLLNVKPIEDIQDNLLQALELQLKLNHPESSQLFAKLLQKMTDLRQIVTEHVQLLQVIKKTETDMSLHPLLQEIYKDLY
# Procedure summary: [3H]AD-5075 displacement assay for PPARγ2
# Protocol conditions: gst-fusion human PPARγ2, charcoal separation, ~16 h at 4° C.
Attribute measured: Kd

Compound	Observed result
Cc1oc(-c2ccccc2)nc1C(O)COc1ccc(CC2SC(=O)NC2=O)cc1 (stereo not shown)	~1 nM
